Tested on: LU99A
assay.summary: relative viability (nuclei count vs DMSO), 5 days (fraction); higher = more cells survive
condition.description: first compound 4 µM
Here, each record is paired with measured relative viability data.
value.kind: relative viability

C[C@@H]1CN(CC(=O)Nc2ccc3c(c2)Cc2cccc(-c4cc(=O)cc(N5CCOCC5)o4)c2S3)C[C@H](C)O1 + Cc1cc(Nc2cc(N3CCN(C)CC3)nc(Sc3ccc(NC(=O)C4CC4)cc3)n2)n[nH]1 [Tozasertib] (partner 0.1 µM) :: 0.251
COc1cc(N2CCC(C(N)=O)CC2)ccc1Nc1nc(N)c(Cl)c(Nc2ccccc2S(=O)(=O)C(C)C)n1 [HG-5-88-01] + C[C@]1(O)C[C@@H](c2nc(-c3ccc4ccc(-c5ccccc5)nc4c3)c3c(N)nccn32)C1 [Linsitinib] (partner 1 µM) :: 0.589
